viability, T/C for assorted compounds
- Test system: 695427-040-R-J1-PDC complex spheroids, viability percent T/C
- protocol.notes: Anticancer human tumor 695427-040-R-J1-PDC patient-derived colon adenocarcinoma cell line growth inhibition [GQUAD]
- condition.notes: second compound 3.16 µM; first compound 0.1 µM; stronger effect = lower value
Numbers only; they are read as %.

Observed viability, T/C on 695427-040-R-J1-PDC complex spheroids, viability percent T/C, entry C=CC(=O)N1CCN(c2nc(=O)n(-c3c(C)ccnc3C(C)C)c3nc(-c4c(O)cccc4F)c(F)cc23)C(C)C1 (stereo not drawn) + CN(C)c1ccc(Nc2c3ccc(NC(=O)CCN4CCCC4)cc3nc3cc(NC(=O)CCN4CCCC4)ccc23)cc1 , equals 90.9

Observed viability, T/C on 695427-040-R-J1-PDC complex spheroids, viability percent T/C, entry Cc1cccc(N(C)C(=O)C2C(O)CCN2c2nc(C)cc(C(F)(F)F)c2C#N)c1 (stereo not drawn) + Cc1[nH]c2ccc(F)cc2c1-c1nc2c3cccnc3c3ncccc3c2[nH]1 , equals 75.2

Observed viability, T/C on 695427-040-R-J1-PDC complex spheroids, viability percent T/C, entry Nc1ccn(C2OC(CO)C(O)C2(F)F)c(=O)n1 (stereo not drawn) + Cc1cnc(CNC(=O)c2c(=O)c3ccc(N4CCCN(C)CC4)nc3n3c2sc2ccccc23)cn1 , equals 50.9

====

- System: 695427-040-R-J1-PDC complex spheroids, viability percent T/C
- protocol.notes: Anticancer human tumor 695427-040-R-J1-PDC cell line growth inhibition [GQUAD]; active = viability on the fitted dose curve at most 10% of control; inactive = the rest;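 note: spheroids exposed to compounds for seven days before readout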
- condition.notes: second compound 3.16 µM; first compound 1 µM
Pick from active, inactive when you respond.

# count of solved cases: 3
molecule	assay.system	group
COc1ncnc(C2CC2)c1-c1ncc2cnn(Cc3ccc(-c4nc(C(F)(F)F)cn4C(C)C)cc3)c2n1 + CN(C)c1ccc(Nc2c3ccc(NC(=O)CCN4CCCC4)cc3nc3cc(NC(=O)CCN4CCCC4)ccc23)cc1	695427-040-R-J1-PDC complex spheroids, viability percent T/C	inactive
O=c1[nH]cc(F)c(=O)[nH]1 + Cc1[nH]c2ccc(F)cc2c1-c1nc2c3cccnc3c3ncccc3c2[nH]1	695427-040-R-J1-PDC complex spheroids, viability percent T/C	inactive
CC(C)(O)C1CCC(Nc2ccc3ncc(-c4cccc(C(F)(F)F)c4)n3n2)CC1 (configuration not stated) + Cc1cnc(CNC(=O)c2c(=O)c3ccc(N4CCCN(C)CC4)nc3n3c2sc2ccccc23)cn1	695427-040-R-J1-PDC complex spheroids, viability percent T/C	inactive

Check the results log: what was the call for C#Cc1c(F)ccc2cc(O)cc(-c3ncc4c(N5CC6CCC(C5)N6)nc(OCC56CCCN5CC(F)C6)nc4c3F)c12 (configuration not stated) + Cc1[nH]c2ccc(F)cc2c1-c1nc2c3cccnc3c3ncccc3c2[nH]1 ?
inactive

Check the results log: what was the call for COc1cc(C2c3cc4c(cc3C(OC3OC5COC(C)OC5C(O)C3O)C3COC(=O)C23)OCO4)cc(OC)c1O (configuration not stated) + Cc1cnc(CNC(=O)c2c(=O)c3ccc(N4CCCN(C)CC4)nc3n3c2sc2ccccc23)cn1 ?
inactive

Check the results log: what was the call for CC1COCCN1c1cc(-c2ccnn2C)c2ccnc(-c3ccn[nH]3)c2n1 (configuration not stated) + Cc1cnc(CNC(=O)c2c(=O)c3ccc(N4CCCN(C)CC4)nc3n3c2sc2ccccc23)cn1 ?
inactive

Check the results log: what was the call for Nc1ccn(C2OC(CO)C(O)C2(F)F)c(=O)n1 (configuration not stated) + CN(C)c1ccc(Nc2c3ccc(NC(=O)CCN4CCCC4)cc3nc3cc(NC(=O)CCN4CCCC4)ccc23)cc1 ?
inactive

Check the results log: what was the call for Nc1ccn(C2OC(CO)C(O)C2(F)F)c(=O)n1 (configuration not stated) + Cc1cnc(CNC(=O)c2c(=O)c3ccc(N4CCCN(C)CC4)nc3n3c2sc2ccccc23)cn1 ?
inactive

====

- Tested on: 695427-040-R-J1-PDC complex spheroids, viability percent T/C
- protocol.notes: Anticancer human tumor 695427-040-R-J1-PDC cell line growth inhibition [GQUAD];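 note: spheroids exposed to compounds for seven days before readout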
- condition.notes: second compound 1 µM; first compound 0.316 µM; stronger effect = lower value
viability, T/C for assorted molecules

A selection of reference data follows.
molecule	assay.system	viability, T/C
CC[C@@]1(O)C(=O)OCc2c1cc1n(c2=O)Cc2cc3c(CN(C)C)c(O)ccc3nc2-1 + CN(C)c1ccc(Nc2c3ccc(NC(=O)CCN4CCCC4)cc3nc3cc(NC(=O)CCN4CCCC4)ccc23)cc1	695427-040-R-J1-PDC complex spheroids, viability percent T/C	93.7%
COc1ncnc(C2CC2)c1-c1ncc2cnn(Cc3ccc(-c4nc(C(F)(F)F)cn4C(C)C)cc3)c2n1 + CN(C)c1ccc(Nc2c3ccc(NC(=O)CCN4CCCC4)cc3nc3cc(NC(=O)CCN4CCCC4)ccc23)cc1	695427-040-R-J1-PDC complex spheroids, viability percent T/C	91.5%
CC[C@@]1(O)C(=O)OCc2c1cc1n(c2=O)Cc2cc3c(CN(C)C)c(O)ccc3nc2-1 + Cc1[nH]c2ccc(F)cc2c1-c1nc2c3cccnc3c3ncccc3c2[nH]1	695427-040-R-J1-PDC complex spheroids, viability percent T/C	73.2%

# viability, T/C (molecule: C=CC(=O)N1CCN(c2nc(=O)n(-c3c(C)ccnc3C(C)C)c3nc(-c4c(O)cccc4F)c(F)cc23)C(C)C1 (stereo unspecified) + Cc1cnc(CNC(=O)c2c(=O)c3ccc(N4CCCN(C)CC4)nc3n3c2sc2ccccc23)cn1 ) is 60%

# viability, T/C (molecule: CC1COCCN1c1cc(C2(O)CC3CCC(C2)O3)c2cnn(-c3ccn[nH]3)c2n1 (stereo unspecified) + Cc1[nH]c2ccc(F)cc2c1-c1nc2c3cccnc3c3ncccc3c2[nH]1 ) is 55.2%

# viability, T/C (molecule: CC(C)(O)C1CCC(Nc2ccc3ncc(-c4cccc(C(F)(F)F)c4)n3n2)CC1 (stereo unspecified) + Cc1cnc(CNC(=O)c2c(=O)c3ccc(N4CCCN(C)CC4)nc3n3c2sc2ccccc23)cn1 ) is 46.9%

# viability, T/C (molecule: Cc1cccc(N(C)C(=O)C2C(O)CCN2c2nc(C)cc(C(F)(F)F)c2C#N)c1 (stereo unspecified) + CN(C)c1ccc(Nc2c3ccc(NC(=O)CCN4CCCC4)cc3nc3cc(NC(=O)CCN4CCCC4)ccc23)cc1 ) is 98.3%

# viability, T/C (molecule: CC(=O)O[C@H]1C(=O)[C@@]2(C)[C@H]([C@H](OC(=O)c3ccccc3)[C@]3(O)C[C@H](OC(=O)[C@H](O)[C@@H](NC(=O)c4ccccc4)c4ccccc4)C(C)=C1C3(C)C)[C@]1(OC(C)=O)CO[C@@H]1C[C@@H]2O + CN(C)c1ccc(Nc2c3ccc(NC(=O)CCN4CCCC4)cc3nc3cc(NC(=O)CCN4CCCC4)ccc23)cc1 ) is 89.8%

# viability, T/C (molecule: C=CC(=O)N1CCN(c2nc(=O)n(-c3c(C)ccnc3C(C)C)c3nc(-c4c(O)cccc4F)c(F)cc23)C(C)C1 (stereo unspecified) + Cc1[nH]c2ccc(F)cc2c1-c1nc2c3cccnc3c3ncccc3c2[nH]1 ) is 79.6%

# viability, T/C (molecule: C#Cc1c(F)ccc2cc(O)cc(-c3ncc4c(N5CC6CCC(C5)N6)nc(OCC56CCCN5CC(F)C6)nc4c3F)c12 (stereo unspecified) + Cc1[nH]c2ccc(F)cc2c1-c1nc2c3cccnc3c3ncccc3c2[nH]1 ) is 82.5%

# viability, T/C (molecule: Nc1ccn(C2OC(CO)C(O)C2(F)F)c(=O)n1 (stereo unspecified) + CN(C)c1ccc(Nc2c3ccc(NC(=O)CCN4CCCC4)cc3nc3cc(NC(=O)CCN4CCCC4)ccc23)cc1 ) is 75%

# viability, T/C (molecule: O=C(NO)c1cnc(N2CCN(S(=O)(=O)c3ccc4ccccc4c3)CC2)nc1 + Cc1cnc(CNC(=O)c2c(=O)c3ccc(N4CCCN(C)CC4)nc3n3c2sc2ccccc23)cn1 ) is 41.7%

# viability, T/C (molecule: CC(=O)O[C@H]1C(=O)[C@@]2(C)[C@H]([C@H](OC(=O)c3ccccc3)[C@]3(O)C[C@H](OC(=O)[C@H](O)[C@@H](NC(=O)c4ccccc4)c4ccccc4)C(C)=C1C3(C)C)[C@]1(OC(C)=O)CO[C@@H]1C[C@@H]2O + Cc1[nH]c2ccc(F)cc2c1-c1nc2c3cccnc3c3ncccc3c2[nH]1 ) is 72.2%

# viability, T/C (molecule: CC(C)n1c(=O)n(C)c2cnc3cc(F)c(-c4ccc(OCCCN5CCCCC5)nc4)cc3c21 + Cc1cnc(CNC(=O)c2c(=O)c3ccc(N4CCCN(C)CC4)nc3n3c2sc2ccccc23)cn1 ) is 69.9%

# viability, T/C (molecule: C#Cc1c(F)ccc2cc(O)cc(-c3ncc4c(N5CC6CCC(C5)N6)nc(OCC56CCCN5CC(F)C6)nc4c3F)c12 (stereo unspecified) + CN(C)c1ccc(Nc2c3ccc(NC(=O)CCN4CCCC4)cc3nc3cc(NC(=O)CCN4CCCC4)ccc23)cc1 ) is 106%

# viability, T/C (molecule: CC1COCCN1c1cc(C2(O)CC3CCC(C2)O3)c2cnn(-c3ccn[nH]3)c2n1 (stereo unspecified) + Cc1cnc(CNC(=O)c2c(=O)c3ccc(N4CCCN(C)CC4)nc3n3c2sc2ccccc23)cn1 ) is 31.5%
